Some compounds, each annotated with its measured Enzymatic Emax (%).
- target: recombinant human Meningioma Expressed Antigen 5 (MGEA5), also referred to as O-GlcNAcase (OGA) (Homo sapiens, UniProt O60502)
- Construct: Full length OGA enzyme was purchased at OriGene (cat #TP322411); purchased OriGene TP322411
- assay_text: OGA biochemical assay (inhibition of FM-GlcNAc hydrolysis, fluorescence)
- experimental_context: FM-GlcNAc substrate, maximal effect
measure: Enzymatic Emax (%)

>>> recorded_value("Cc1cc(C[C@@H]2CCN(C(C)c3nc4nc(C)sc4cc3F)C2)cc(C)n1 (single isomer, unassigned) [Compound 94]")
76
>>> recorded_value("Cc1cc(O[C@@H]2CCN(C(C)c3ccc4sc(C)nc4n3)C2)cc(C)n1 (single isomer, unassigned) [Compound 74]")
97
>>> recorded_value("Cc1cc(CO[C@H]2CCCN(C(C)c3cc4nc(C)sc4cc3F)C2)cc(C)n1 (single isomer, unassigned) [Compound 101]")
98
>>> recorded_value("Cc1cc(C2CCCN(C(C)c3ccc4sc(C)nc4n3)C2)c(F)c(C)n1 (single isomer, unassigned) [Compound 78]")
93
>>> recorded_value("Cc1cc(C2CCCN(C(C)c3cc4nc(C)sc4cc3F)C2)cc(C)n1 (centres unmarked) [Compound 90]")
101
>>> recorded_value("Cc1cc(O[C@@H]2CCN(C(C)c3ccc4sc(C)nc4n3)C2)cc(C)n1 (single isomer, unassigned) [Compound 73]")
8
>>> recorded_value("Cc1cc(C[C@H]2CCCN(C(C)c3cnc4[nH]c(C)nc4c3)C2)cc(C)n1 (single isomer, unassigned) [Compound 6b]")
100
>>> recorded_value("Cc1cc(C[C@H]2CCCN(C(C)c3ccc4sc(C)nc4n3)C2)cc(C)n1 (single isomer, unassigned) [Compound 42b]")
101

###

Some compounds, each annotated with its measured EC50.
- target: OGA (Homo sapiens, UniProt O60502)
- Construct: HEK293 cells inducible for P301L mutant human Tau (isoform 2N4R) were established at Janssen; endogenous in cells; host or cells: HEK293 cells inducible for P301L mutant human Tau (2N4R)
- Sequence (O60502 1-916): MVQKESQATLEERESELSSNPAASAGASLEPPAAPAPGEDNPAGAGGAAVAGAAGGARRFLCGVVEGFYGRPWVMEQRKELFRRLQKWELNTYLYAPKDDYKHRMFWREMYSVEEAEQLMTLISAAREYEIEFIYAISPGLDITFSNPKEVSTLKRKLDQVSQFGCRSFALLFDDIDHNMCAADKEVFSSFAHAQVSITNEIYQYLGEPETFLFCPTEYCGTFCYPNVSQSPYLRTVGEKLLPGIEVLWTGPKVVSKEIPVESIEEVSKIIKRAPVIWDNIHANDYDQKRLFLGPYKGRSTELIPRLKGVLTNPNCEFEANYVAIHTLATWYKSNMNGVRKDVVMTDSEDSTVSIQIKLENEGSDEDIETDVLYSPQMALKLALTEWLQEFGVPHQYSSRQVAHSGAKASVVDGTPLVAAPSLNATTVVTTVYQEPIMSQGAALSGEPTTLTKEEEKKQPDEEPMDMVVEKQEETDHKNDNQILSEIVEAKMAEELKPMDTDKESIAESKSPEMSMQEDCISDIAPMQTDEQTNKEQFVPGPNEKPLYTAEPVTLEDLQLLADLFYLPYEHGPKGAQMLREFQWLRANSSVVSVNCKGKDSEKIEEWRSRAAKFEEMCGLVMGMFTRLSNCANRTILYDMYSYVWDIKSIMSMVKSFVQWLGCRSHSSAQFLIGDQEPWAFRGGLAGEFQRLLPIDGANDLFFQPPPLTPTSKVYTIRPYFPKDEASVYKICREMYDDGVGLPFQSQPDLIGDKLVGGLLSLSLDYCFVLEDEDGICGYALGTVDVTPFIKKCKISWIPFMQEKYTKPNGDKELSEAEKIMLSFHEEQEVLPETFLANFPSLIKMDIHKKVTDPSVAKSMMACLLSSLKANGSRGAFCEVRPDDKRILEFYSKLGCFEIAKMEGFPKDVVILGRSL
- assay_text: OGA cellular assay (ICC detection of O-GlcNAcylated proteins in HEK293 cells inducible for P301L mutant human Tau)
- Type: cell-based
- experimental_context: HEK293 cells inducible for P301L mutant human Tau, 6 hours incubation; read-out: Cellular hOGA; pEC50 (converted)
measure: EC50

>>> recorded_value("Cc1cc(C[C@H]2CCCN([C@H](C)c3ccc4oc(C)nc4n3)C2)cc(OC(F)(F)F)n1 [Compound 25a]")
"50.1 nM"
>>> recorded_value("Cc1cc(OC[C@H]2CCN(C(C)c3ccc4sc(C)nc4n3)C2)cc(C)n1 (mixture of isomers) [Compound 48]")
"> 1000 nM"
>>> recorded_value("Cc1cc(CO[C@H]2CCCN(C(C)c3cc4nc(C)sc4cc3F)C2)cc(C)n1 (single isomer, unassigned) [Compound 100]")
"> 1000 nM"
>>> recorded_value("Cc1cc(CO[C@@H]2CCCN(C(C)c3ccc4sc(C)nc4n3)C2)cc(C)n1 (stereo partly shown) [Compound 68]")
"> 1000 nM"
>>> recorded_value("Cc1cc(CN[C@H]2CCCN(C(C)c3ccc4sc(C)nc4n3)C2)cc(C)n1 (stereo partly shown) [Compound 84]")
"501 nM"
>>> recorded_value("Cc1cc(C2CCCN(C(C)c3ccc4sc(C)nc4n3)C2)c(F)c(C)n1 (single isomer, unassigned) [Compound 77]")
"> 1000 nM"
>>> recorded_value("Cc1cc(C[C@H]2CCCN(Cc3cnc4nc(C)oc4c3)C2)cc(C)n1 [Compound 37]")
"> 1000 nM"
